Test system: SK-MEL-2 melanoma
Experiment: NCI tumour cell line growth inhibition, 48 h
READOUT TYPE: TGI

Sample records with TGI:
C/C(=N/c1[nH]c(=O)cc2c1C(=O)CC2)N(C)C    > 200 µM
Cc1cn([C@H]2C[C@@H]3[C@@H](COC(CCl)N3O)O2)c(=O)[nH]c1=O (stereo partly drawn)    > 100 µM

Now turn to the next compound.
q: Recorded TGI of C=C(C)[C@H]1C[C@@H]2O[C@@](O)(/C(C)=C\C(=O)/C=C(/C)C[C@H]3OC(=O)[C@@]24O[C@H]34)[C@@H]1O , please.
a: > 100 µM

====

Tested on: HOP-62 NSCLC
Assay: NCI tumour cell line growth inhibition, 48 h
Classification field: TRUE = TGI at or over 60 µM; FALSE = TGI under 60 µM.

CCCC(=O)NC(C(=O)OCC)(N1CCOCC1)C(F)(F)F (configuration not stated)    TRUE
COC(=O)/C(=N\NC(=S)NN)C(C(=O)OC)C(=O)C(=O)Nc1cccc(C(F)(F)F)c1 (configuration not stated)    TRUE
CC1(C)CCCCCCC2CC2CCCCCC(C)(C)C1=O (configuration not stated)    TRUE
Cc1cc(C)c2nc3nc(C)cc(C)c3c(N)c2c1    FALSE
COc1cc(/C=C2\C(=O)N(c3ccccc3)c3ccccc32)cc(OC)c1OC    FALSE

q: # bool: TGI of CC(C)NC(=O)OCc1c(COC(=O)NC(C)C)c(-c2ccc(Cl)c(Cl)c2)n2c1CCC2 >= 60 µM
a: TRUE

q: # bool: TGI of CCOC(=O)c1c(Cl)c2c(n1Cc1cccc(OC)c1)-c1oncc1CC2 >= 60 µM
a: TRUE

q: # bool: TGI of Cc1nc2c(O)cc3c4c(n(Cc5ccccc5)c3c2nc1C)C(=O)CCC4 >= 60 µM
a: FALSE

q: # bool: TGI of CCC1CC(C)=CCN1S(=O)(=O)c1ccc(C)cc1 (configuration not stated) >= 60 µM
a: TRUE

q: # bool: TGI of CCC1c2[nH]c3ccccc3c2C[C@H]2C(=O)N3CCC[C@H]3C(=O)N12 (some centres not stated) >= 60 µM
a: TRUE

q: # bool: TGI of CCOC(=O)c1c(-c2ccccc2)nc2c(OC)nccn12 >= 60 µM
a: TRUE

====

Test system: SNB-75 CNS
Assay: NCI tumour cell line growth inhibition, 48 h
Below: a set of entries, each annotated with reported TGI.

Sample records with TGI:
CCCNC(=O)Cn1c(C)cc2ccccc21    > 100 µM
NCCCNCCSSC/C=C\CSSCCNCCCN    > 100 µM
COC(=O)C(Cc1ccccc1)NC(=O)Cn1ccnc1[N+](=O)[O-] (stereo not given)    > 100 µM
C=C(C)[C@H]1C[C@@H]2O[C@@](O)(/C(C)=C\C(=O)/C=C(/C)C[C@H]3OC(=O)[C@@]24O[C@H]34)[C@@H]1O    > 100 µM
CC(C)[Si](OC1=C(C(=O)N(C)c2ccccc2Cl)CCCCC1)(C(C)C)C(C)C    > 100 µM
Cc1cn([C@H]2C[C@@H]3[C@@H](COC(CCl)N3O)O2)c(=O)[nH]c1=O (stereo not given in full)    > 100 µM

Now turn to the next molecule.
q: Recorded TGI of CNC(=O)C1CCCN1C(=O)C(Cc1cnc[nH]1)NC(=O)C1CCC(=O)N1 (stereo not given) , please.
a: > 100 µM

====

Test system: A549 NSCLC
Assay: NCI tumour cell line growth inhibition, 48 h
READOUT TYPE: TGI

Sample records with TGI:
Cc1c(NC(=O)c2cc([N+](=O)[O-])cc([N+](=O)[O-])c2)c(=O)n(-c2ccccc2)n1C    > 100 µM
C/C=N\n1c(C)c(C#N)c(C#N)c1N    > 100 µM

Now turn to the next compound.
q: Record COc1cc2c(cc1OC)C1Cc3cc(OC)c(OC)cc3C(C2)O1 : what is its TGI with A549 NSCLC?
a: > 100 µM

====

Below: a set of entries, each annotated with reported TGI.
Test system: NCI-H460 lung
Experiment: NCI tumour cell line growth inhibition, 48 h
The reply should contain only the number, in µM.

CC(C)NC(=O)OCc1c(COC(=O)NC(C)C)c(-c2ccc(Cl)c(Cl)c2)n2c1CCC2    68.3
CC1OC(n2c3ccccc3c3c4c(c5c6ccccc6[nH]c5c32)C(=O)N(CCN2CCOCC2)C4=O)CC(O)C1O (stereo not given)    5.27
COc1cc(-n2cnc(-c3ccc(Cl)cc3)c2)cc(OC)c1OC    36.8

Now turn to the next compound.
q: Record COc1ccc(OC)c(/C=C2\COc3ccc(O)c(O)c3C2=O)c1 : what is its TGI with NCI-H460 lung?
a: 5.61

====

System: HCT-15 colon
Experiment: NCI tumour cell line growth inhibition, 48 h
READOUT TYPE: TGI (µM)
The reply should contain only the number, in µM.

O=C(CN1C(=O)S/C(=C\C(Cl)=C\c2ccccc2)C1=O)NCCc1ccc(O)cc1    4.56

Now turn to the next compound.
q: Recorded TGI of COC1=CC(c2ccc[nH]2)=N/C1=C\c1[nH]c(C)c(C(C)=O)c1C , please.
a: 2.15

====

System: SR leukemia
Test: NCI tumour cell line growth inhibition, 48 h; in the data active means GI50 below about 0.43 µM; inactive means the rest
Respond with a class label; see active, inactive

Completed entries (count: 8):
S=C(c1ccc2c(c1)OCO2)N1CCN(c2cccc(Cl)c2)CC1    active
COc1ccc(OC)c(/C=C2\COc3ccc(O)c(O)c3C2=O)c1    inactive
CCN(CC)CCCC(Cc1ccccc1)Nc1c2ccc(Cl)cc2nc2ccc(OC)cc12 (centres undefined)    inactive
Cc1ccc(NC2=C(Cl)C(=O)N(Cc3ccccc3)C2=O)cc1Cl    inactive
COc1cc(-n2cnc(-c3ccc(Cl)cc3)c2)cc(OC)c1OC    inactive
CCOC(=O)c1c(Cl)c2c(n1Cc1cccc(OC)c1)-c1oncc1CC2    inactive
CCN(CC)CCCCNc1ncc2cc(-c3cc(OC)cc(OC)c3)c(NC(=O)NC(C)(C)C)nc2n1    inactive
O=C1/C(=C/c2ccccc2F)CN(C(=O)C(Cl)Cl)C/C1=C\c1ccccc1F    active

API: the following record is the query input.
q: Hi team, can someone confirm the assay call for COc1ccc2c(c1)/C(=C\c1c(Cl)n(C)c3ccccc13)C(=O)N2 ?
a: active

====

Tested on: NCI-H226 lung
Test: NCI tumour cell line growth inhibition, 48 h
READOUT TYPE: TGI

Cn1c(=O)cc(N=Nc2ccc(Cl)c(Cl)c2)[nH]c1=O    > 100 µM
COC(=O)C1(Cc2cccc(C)c2)Cc2c(C)cccc2C1=O (configuration not stated)    > 100 µM
OCCCc1cc(O)c2c(c1)C(CO)C(c1ccc(O)c(O)c1)O2 (configuration not stated)    > 100 µM

q: Recorded TGI of COC(=O)c1cnn2c1ccc1ccccc12 , please.
a: > 100 µM

q: Recorded TGI of NC(=NCCN1CCCCCCC1)NO , please.
a: > 100 µM

====

Below: a set of entries, each annotated with reported TGI.
Tested on: DMS 273 small cell lung
Assay: NCI tumour cell line growth inhibition, 48 h

NC(=O)CCC(NC(=O)Cc1ccccc1)C(=O)O (centres undefined) (tested in a mixture with another compound)    > 2470 µM
COC(=O)C1=C(CS(=O)c2ccc([N+](=O)[O-])cc2[N+](=O)[O-])ON(C)C1c1ccccc1 (centres undefined)    > 80.6 µM
CC(C)NC(=O)OCc1c(COC(=O)NC(C)C)c(-c2ccc(Cl)c(Cl)c2)n2c1CCC2    > 67 µM

Now turn to the next molecule.
q: Recorded TGI of COC(=O)C(Cc1ccccc1)NC(=O)Cn1ccnc1[N+](=O)[O-] (centres undefined) , please.
a: > 100 µM

====

Tested on: HOP-92 NSCLC
Experiment: NCI tumour cell line growth inhibition, 48 h
Below: a set of entries, each annotated with reported TGI.

Sample records with TGI:
COc1ccc(C(=O)CC(=O)C(=O)Nc2ccc(C)c(C)c2)cc1    > 100 µM
CC(=O)OC[C@@]1(C)[C@@H]2[C@@H]3[C@@]4(CO[C@]3(C)C(=O)[C@@]3(O)C[C@H](C)[C@H](OC(C)=O)[C@@H]3[C@H]4OC(C)=O)[C@H](OC(=O)c3ccccc3)C[C@@H]21    > 100 µM

Now turn to the next compound.
q: Record CNC(=O)C1CCCN1C(=O)C(Cc1cnc[nH]1)NC(=O)C1CCC(=O)N1 (stereo not drawn) : what is its TGI with HOP-92 NSCLC?
a: > 100 µM

====

Below: a set of entries, each annotated with reported TGI.
Tested on: SN12C renal
Test: NCI tumour cell line growth inhibition, 48 h

COC(=O)c1cc(C)ccc1C1CN=NC12Cc1cccc(C)c1C2=O (configuration not stated)    > 100 µM

q: Recorded TGI of CC1=CC(=O)[C@@H](O)[C@]2(C)[C@H]3[C@@]4(O)OC[C@@]35[C@@H](C[C@@H]12)OC(=O)C(OC(=O)CC1=CCCC1)[C@H]5[C@@H](C)[C@H]4O (some centres not stated) , please.
a: 0.435 µM

q: Recorded TGI of COCCN(CCOC)C(=O)COc1c2cc(C(C)(C)C)cc1Cc1cc(C(C)(C)C)cc(c1OCC(=O)N(CCOC)CCOC)Cc1cc(C(C)(C)C)cc(c1OCC(=O)N(CCOC)CCOC)Cc1cc(C(C)(C)C)cc(c1OCC(=O)N(CCOC)CCOC)Cc1cc(C(C)(C)C)cc(c1OCC(=O)N(CCOC)CCOC)C2 , please.
a: 11.4 µM

q: Recorded TGI of COC(=O)C(Cc1c(C2Nc3ccccc3C2CC(NC(C)=O)C(=O)OC)[nH]c2ccccc12)NC(C)=O (configuration not stated) , please.
a: > 100 µM

q: Recorded TGI of Cc1sc(Nc2ccccc2[N+](=O)[O-])c(C#N)c1C , please.
a: > 100 µM

q: Recorded TGI of C=C(C)[C@@H]1CCC2=C[C@H](OC2=O)[C@@]2(C)C[C@@H]2C(=O)/C=C(/C)C(=O)[C@H]1OC(C)=O , please.
a: > 56.9 µM

q: Recorded TGI of CC(C)n1c(=O)[nH]n(-c2ccccc2)c1=O , please.
a: > 100 µM

q: Recorded TGI of Cc1cc(O)c(C=NC(=S)c2ccccc2)c(=O)o1 , please.
a: > 100 µM

q: Recorded TGI of NCCCNCCSSC/C=C\CSSCCNCCCN , please.
a: > 100 µM
